- Tested on: DU145 cell line
- Assay notes: Cancer cell growth inhibition, SRB dye assay (single agents and 50:50 IC50 mixtures)
- Type: cell-based, human
- Measurement setup: Homo sapiens, DU-145, 144 h, single agent, Example 2
pIC50: −log10 of the molar value.
Outcome measure: pIC50

Below, 2 compounds whose answers are already recorded.
compound="COc1cccc2c1C(=O)c1c(O)c3c(c(O)c1C2=O)C[C@@](O)(C(=O)CO)C[C@@H]3O[C@H]1C[C@H](N)[C@H](O)[C@H](C)O1 [Doxorubicin]" outcome_measure=pIC50 number=7.96
compound="CC(=O)O[C@H]1C(=O)[C@@]2(C)[C@H]([C@H](OC(=O)c3ccccc3)[C@]3(O)C[C@H](OC(=O)[C@H](O)[C@@H](NC(=O)c4ccccc4)c4ccccc4)C(C)=C1C3(C)C)[C@]1(OC(C)=O)CO[C@@H]1C[C@@H]2O [Paclitaxel]" outcome_measure=pIC50 number=8.57

[I] CC[C@]1(O)C[C@H]2CN(CCc3c([nH]c4ccccc34)[C@@](C(=O)OC)(c3cc4c(cc3OC)N(C=O)[C@H]3[C@@](O)(C(=O)OC)[C@H](OC(C)=O)[C@]5(CC)C=CCN6CC[C@]43[C@@H]65)C2)C1 [Vincristine]
[II] CC(=O)O[C@@]12CO[C@@H]1C[C@H](O)[C@@]1(C)C(=O)[C@H](O)C3=C(C)[C@@H](OC(=O)[C@H](O)[C@@H](NC(=O)OC(C)(C)C)c4ccccc4)C[C@@](O)([C@@H](OC(=O)c4ccccc4)[C@H]21)C3(C)C [Docetaxel]
Ask: Out of I and II , name the one with the higher pIC50. Could you answer with the label of the item you picked?
Reply: II
(II: 9.82, I: 8.54)

###

- Test system: MCF7 cell line
- Assay notes: Cancer cell growth inhibition, SRB dye assay (single agents and 50:50 IC50 mixtures)
- Format: cell-based, human
- Measurement setup: single agent, Example 2, read-out: IC50
Outcome measure: IC50 (nM)
Numeric only. Scale: nM

Ask: What does the data say about its IC50? Entry: N.N.[Cl][Pt][Cl] [Cisplatin]
Reply: 650

###

- Test system: PC3, DU145, A549 and HT29 cell lines
- Assay notes: Cancer cell growth inhibition, IC50 values used in assay for four cell lines (Example 5)
- Format: cell-based, human
- Measurement setup: Homo sapiens, value used to make up 50:50 IC50 mixtures
Outcome measure: IC50 (nM)

[a] COc1cccc2c1C(=O)c1c(O)c3c(c(O)c1C2=O)C[C@@](O)(C(=O)CO)C[C@@H]3O[C@H]1C[C@H](N)[C@H](O)[C@H](C)O1
[b] CC(=O)O[C@@]12CO[C@@H]1C[C@H](O)[C@@]1(C)C(=O)[C@H](O)C3=C(C)[C@@H](OC(=O)[C@H](O)[C@@H](NC(=O)OC(C)(C)C)c4ccccc4)C[C@@](O)([C@@H](OC(=O)c4ccccc4)[C@H]21)C3(C)C
Ask: Out of a and b , name the one with the higher IC50. Could you answer with the label of the item you picked?
Reply: a
(a: 15 nM, b: 0.2 nM)

###

- System: HT29 cell line
- Assay notes: Cancer cell growth inhibition, SRB dye assay (single agents and 50:50 IC50 mixtures)
- Assay type: cell-based, human
- Measurement setup: single agent, Example 2
Outcome measure: IC50 (nM)
Numeric only. Scale: nM

Ask: What does the data say about its IC50? Entry: N.N.[Cl][Pt][Cl] [Cisplatin]
Reply: 930

###

- System: PC3, DU145, A549 and HT29 cell lines
- Assay notes: Cancer cell growth inhibition, IC50 values used in assay for four cell lines (Example 5)
- Type: cell-based, human
- Measurement setup: Homo sapiens, value used to make up 50:50 IC50 mixtures
// values below are reported pIC50
pIC50 here is simply -log10 of the concentration when that concentration is written in mol/L.

Below, 2 compounds whose answers are already recorded.
compound="CC[C@]1(O)C[C@H]2CN(CCc3c([nH]c4ccccc34)[C@@](C(=O)OC)(c3cc4c(cc3OC)N(C=O)[C@H]3[C@@](O)(C(=O)OC)[C@H](OC(C)=O)[C@]5(CC)C=CCN6CC[C@]43[C@@H]65)C2)C1 [Vincristine]" number=8.60
compound="C[C@@H]1CC[C@@]2(OC1)O[C@H]1C[C@H]3[C@@H]4CC=C5C[C@@H](O[C@@H]6O[C@H](CO)[C@@H](O[C@@H]7O[C@@H](C)[C@H](O)[C@@H](O)[C@H]7O)[C@H](O)[C@H]6O[C@@H]6O[C@@H](C)[C@H](O)[C@@H](O)[C@H]6O)CC[C@]5(C)[C@H]4CC[C@]3(C)[C@H]1[C@@H]2C [Dioscin, diosgenin Rha2, [Rha4], Glc]" number=6.00

Now consider the entry below.
Ask: What does the data say about its pIC50? Entry: C[C@@H]1CC[C@@]2(OC1)O[C@H]1C[C@H]3[C@@H]4CC=C5C[C@@H](O[C@@H]6O[C@H](CO)[C@@H](O[C@@H]7O[C@H](CO)[C@@H](O)[C@H](O)[C@H]7O)[C@H](O)[C@H]6O[C@@H]6O[C@@H](C)[C@H](O)[C@@H](O)[C@H]6O)CC[C@]5(C)[C@H]4CC[C@]3(C)[C@H]1[C@@H]2C [Deltonin, diosgenin Rha2, [Glc4], Glc]
Reply: 6.00
